Just for reference, paper PMC6838048 is where these values come from.

Recorded fraction unbound at 15 min for the following compounds
# experimentalDetails: fu,PL from membrane affinity to PL-covered silica beads, mixed beads
# Type: in vitro ADME
# studyConditions: mixed beads PC:PE:PS:PI 52:22:12:14 mol%, 15 min incubation; read-out: fu,mixed bead Geomean
# Description: f u,PL was derived from membrane affinity measurements to beads covered with PLs as previously described ([6]). Cbuffer was quantified by LC-MS/MS in samples of the supernatant that was obtained after 15 min incubation time on an orbital shaker at 1000 rpm and subsequent separation from the beads by centrifugation at 750 x g. […] Unspecific binding was evaluated by incubations into wells without added lipids.
Write the value as a bare number.

compound	fraction unbound at 15 min
CCCNC(=O)NS(=O)(=O)c1ccc(Cl)cc1 [Chlorpropamide]	0.0343
Cn1c(=O)c2c(ncn2C)n(C)c1=O [Caffeine]	0.0145
CCN(CC)CCCC(C)Nc1c2ccc(Cl)cc2nc2ccc(OC)cc12 (centres unmarked) [Quinacrine]	0.0029

Incoming: Quick one: give measured fraction unbound at 15 min for Cc1ccccc1N1C(=O)c2cc(S(N)(=O)=O)c(Cl)cc2NC1C (centres unmarked) [Metolazone]
Outgoing: 0.0069

Incoming: Item COC(=O)CCc1ccc(OCC(O)CNC(C)C)cc1 (centres unmarked) [Esmolol] : provide fraction unbound at 15 min
Outgoing: 0.0084
